assay: NCI Yeast Anticancer Drug Screen. Data for the mlh1 rad18 strain (AID 175); details: S. cerevisiae mlh1 rad18 strain growth inhibition; at 50.0 µM
About 79,000 compounds went through this panel and 15% of them were active in at least one assay; those are over-represented in the sample as a whole. Active and inactive are the calls of the source. Rule as the data show it: active = growth inhibition above about 70%; inactive = the rest.
Give one outcome, nothing more. List: 1 for active, 0 for inactive

Previously resolved entries follow.
>>> print(df.to_string())
                                   compound  category
0  c1ccc2c3[nH]c(c2c1)=Nc1ccc(cc1)-c1nc2ccc(cc2o1)N=c1[nH]c(c2ccccc12)=Nc1ccc2nc(oc2c1)-c1ccc(cc1)N=3         1
1        O=C(O)c1cccc2c1Oc1c(cccc1C(=O)O)S2         1
2           O=C(O)/C=C\c1cc2ccccc2c2ccccc12         1
3  O=C(CC(=O)c1ccccc1NC1=Cc2ccccc2C(=O)C1=O)C(=O)NC1=C(Cl)C(=O)c2ccccc2C1=O         1

So what was the verdict on COc1cc(Cc2n[nH]c(=S)n2-c2ccccc2)c(S(N)(=O)=O)cc1OC in this test?
0

Try CCCCCN(CCCCC)C(=S)Nc1ccccc1 next.
1

Try CCC1=CCC2C(=O)c3cc4ccccc4cc3C(=O)C2C1 (stereo not drawn) next.
1

Try COC1/C=C/OC2(C)Oc3c(C)c(O)c4c(c3C2=O)C(=O)c2cnc(nc2C4=O)/C(C)=C\C=C\C(C)C(O)C(C)C(O)C(C)C(OC(C)=O)C1C (stereo not drawn) next.
0

Try c1ccc([P+](c2ccccc2)(c2ccccc2)C2CCCC2)cc1 next.
1

Try O=C1CN(CCN2CCOCC2)CC(=O)N2CCCCN12 next.
0

###

test: NCI Yeast Anticancer Drug Screen. Data for the mlh1 rad18 strain (AID 175); settings: S. cerevisiae mlh1 rad18 strain growth inhibition; at 50.0 µM; hits give high values
The panel holds about 79,000 compounds, 15% with a hit somewhere; the sample as a whole holds those more often.
For each record, write down the corresponding growth inhibition.
Give bare numbers, in %.

molecule	readout-unit	observed-measurement
COc1ccc(Cc2nc3ccccc3s2)cc1OC	%	91.8
C/C(=N\NC(=S)N1CCC(C)CC1)c1cccc2cccnc12	%	6.35
CN(C)CC1CC/C(=C\c2ccc(Cl)c(Cl)c2)C1=O (stereo not drawn)	%	90.2
CCCCCCNC(=S)N/N=C(\C)c1ccccn1	%	91.2
Cn1c(=O)cc[nH]c1=O	%	14.2

Provide each entry's growth inhibition from the list below.
1. CCN(CC)CCCC(C)Nc1cc(F)cc2cccnc12 (stereo not drawn)
2. CCOC(=O)C1=C(c2ccccc2)N(C)c2ccccc2S1
3. CCC[n+]1ccc(/C=N\NC(N)=S)c2ccccc21
4. Cn1c(=O)cc2c3c(ccc(C(=O)O)c31)C(=O)c1ccccc1-2

1: 85.9; 2: 67.2; 3: -41.6; 4: 51.7

Provide each entry's growth inhibition from the list below.
1. CCC(Cl)COP(=O)(OC(c1ccc(Cl)c(Cl)c1)P(=O)(OCC(Cl)CC)OCC(Cl)CC)C(CC)CCl (stereo not drawn)
2. Cc1c(N=Nc2ccc(Cl)cc2)c(-c2ccccc2)n(C2OC(CO)C(O)C(O)C2O)c(=S)c1C#N (stereo not drawn)
3. O=C(NC1=C(Cl)C(=O)c2ccccc2C1=O)C(=O)C(C(=O)c1ccc2ccccc2c1)C1OC(=O)c2ccccc21 (stereo not drawn)
4. Cc1c[nH]c2c(O)cc3c(c12)[C@H](CCl)CN3C(=O)c1cc2cc(NC(=O)Nc3ccc4[nH]c(C(=O)N5C[C@@H](CCl)c6c5cc(O)c5[nH]cc(C)c65)cc4c3)ccc2[nH]1

94.2
97.4
88.8
3.2

Provide each entry's growth inhibition from the list below.
1. Cc1nc(Nc2ccc(Cl)cc2)sc1C(=O)NNc1ccc([N+](=O)[O-])cc1[N+](=O)[O-]
2. NSc1ccc(N)s1
3. NC1CCCCC1N.O=C([O-])c1ccc(N=Nc2cccc([N+](=O)[O-])c2)cc1O.O=C([O-])c1ccc(N=Nc2cccc([N+](=O)[O-])c2)cc1O.[Pt+4]
4. CCCCCCCCCCCCCCC(O)C[N+](C)(CCO)CCO (stereo not drawn)
5. COc1ccc(NC(=O)/C(=C/c2ccccc2)C(C)=O)cc1
6. OC(C(=Nc1ccccc1)c1ccccc1)c1ccccc1 (stereo not drawn)

[89.8, 58.6, 6.8, 88.9, 98.1, 99.1]
